molecular target: HIV-1 reverse transcriptase (RT) (HIV-1 M:B_HXB2R); construct: gene gag-pol; enzyme of the Colorimetric Reverse Transcriptase Assay kit (Roche); cut from the Gag-Pol polyprotein; with p51 RT; assay type: biochemical; settings: n = 2
Recorded IC50 values for a group of compounds are listed next.
property_label: IC50 (µM)

smiles_entry: NC[C@H](NC(=O)c1ccc(-c2cc(F)c(Cl)c(F)c2)[nH]1)c1nc(CO)c(CO)s1
system: HIV-1 reverse transcriptase (RT) (HIV-1 M:B_HXB2R)
unit_abbreviation: µM
recorded_value: 5
--
smiles_entry: NC[C@H](NC(=O)c1ccc(-c2ccc(C(F)(F)F)cn2)[nH]1)c1ncc(CO)s1
system: HIV-1 reverse transcriptase (RT) (HIV-1 M:B_HXB2R)
unit_abbreviation: µM
recorded_value: 8.3
